Data origin: paper PMC5421785

biological target: HLA-DRB1*01:01 (Homo sapiens, UniProt P01903+P01911, A100R/D57E/F55L/F60I/F76Y/I96L/L162R/M171V/P40L/Q125E/R42F/V115G/Y59C); construct: EBV transformed homozygous cell lines were used as sources of MHC molecules; endogenous in cells; host or cells: EBV transformed homozygous cell lines; assay: HLA class II peptide binding, inhibition of radiolabeled peptide binding to purified MHC; conditions: citrullinated 15-mer peptide (X = citrulline); purified HLA-DRB1*01:01; read-out: DRB1*01:01 binding capacity, Cit peptide (IC50 nM)
Square brackets hold non-standard residues; d marks the D form. Peptide text beside a SMILES is read from it. Cit = NC(=O)NCCC[C@H](N)C(=O)O
parameter measured: IC50 (nM)
One number for each entry, in nM.

Use these answered entries as a reference point.
CC[C@H](C)[C@H](NC(=O)[C@H](CCCNC(N)=O)NC(=O)[C@H](CO)NC(=O)[C@H](CCC(=O)O)NC(=O)[C@H](CCC(=O)O)NC(=O)CNC(=O)[C@H](CCC(=O)O)NC(=O)[C@H](CC(C)C)NC(=O)[C@H](CC(C)C)NC(=O)[C@H](CCCCN)NC(=O)[C@@H](N)CCCNC(=N)N)C(=O)N[C@@H](CO)C(=O)N[C@@H](CC(C)C)C(=O)N1CCC[C@H]1C(=O)N[C@@H](CC(C)C)C(=O)O [RKLLEGEESXISLPL] | 1320
CC[C@H](C)[C@H](NC(=O)CN)C(=O)N[C@H](C(=O)NCC(=O)N[C@@H](CC(C)C)C(=O)N1CCC[C@H]1C(=O)NCC(=O)N[C@@H](CCC(N)=O)C(=O)N[C@@H](CCCNC(=N)N)C(=O)NCC(=O)N[C@@H](CCC(=O)O)C(=O)N[C@@H](CCCNC(N)=O)C(=O)NCC(=O)N[C@@H](Cc1ccccc1)C(=O)N1CCC[C@H]1C(=O)O)C(C)C [GIVGLPGQRGEXGFP] (H-GIVGLPGQRGE[Cit]GFP-OH) | 6.7

Attention now shifts to the item below.
Q) Which value of IC50 has been reported for CC(C)C[C@H](NC(=O)CNC(=O)[C@H](C)NC(=O)[C@H](Cc1ccccc1)NC(=O)[C@H](C)NC(=O)[C@@H](N)CO)C(=O)NCC(=O)N1CCC[C@H]1C(=O)N[C@@H](CCCNC(N)=O)C(=O)N[C@@H](CCC(=O)O)C(=O)N[C@@H](CCCCN)C(=O)NCC(=O)N1CCC[C@H]1C(=O)N[C@@H](CC(=O)O)C(=O)N1CCC[C@H]1C(=O)O [SAFAGLGPXEKGPDP] (H-SAFAGLGP[Cit]EKGPDP-OH) in the records?
A) 35

----------
molecular target: HLA-DRB1*01:01 (Homo sapiens, UniProt P01903+P01911, A100R/D57E/F55L/F60I/F76Y/I96L/L162R/M171V/P40L/Q125E/R42F/V115G/Y59C); construct: EBV transformed homozygous cell lines were used as sources of MHC molecules; endogenous in cells; host or cells: EBV transformed homozygous cell lines; assay: HLA class II peptide binding, inhibition of radiolabeled peptide binding to purified MHC; conditions: citrullinated 15-mer peptide (X = citrulline); purified HLA-DRB1*01:01; read-out: DRB1*01:01 binding capacity, Cit peptide (IC50 nM)
Square brackets hold non-standard residues; d marks the D form. Peptide text beside a SMILES is read from it. Cit = NC(=O)NCCC[C@H](N)C(=O)O
I'd be grateful if you could share measured IC50 for these entries.

Use these answered entries as a reference point.
CSCC[C@H](NC(=O)[C@H](CCC(=O)O)NC(=O)[C@H](CCCNC(N)=O)NC(=O)[C@H](CCSC)NC(=O)[C@H](CCC(N)=O)NC(=O)[C@H](CCCNC(=N)N)NC(=O)[C@H](CCC(=O)O)NC(=O)[C@H](CC(C)C)NC(=O)[C@H](CO)NC(=O)[C@H](CCC(=O)O)NC(=O)[C@H](CC(N)=O)NC(=O)[C@@H](N)[C@@H](C)O)C(=O)N[C@@H](CCC(=O)O)C(=O)N[C@@H](CCC(=O)O)C(=O)N[C@@H](CC(N)=O)C(=O)O [TNESLERQMXEMEEN] (H-TNESLERQM[Cit]EMEEN-OH) | 29700 nM
CSCC[C@H](NC(=O)[C@H](CCC(N)=O)NC(=O)[C@H](CCCNC(N)=O)NC(=O)[C@H](CCC(=O)O)NC(=O)[C@H](CC(C)C)NC(=O)[C@H](CO)NC(=O)[C@H](CCC(=O)O)NC(=O)[C@H](CC(N)=O)NC(=O)[C@@H](NC(=O)CNC(=O)[C@H](CCCCN)NC(=O)[C@H](CC(C)C)NC(=O)[C@H](C)NC(=O)[C@@H](N)CC(=O)O)[C@@H](C)O)C(=O)N[C@@H](CCCNC(=N)N)C(=O)O [DALKGTNESLEXQMR] (H-DALKGTNESLE[Cit]QMR-OH) | > 40000 nM
CC[C@H](C)[C@H](NC(=O)[C@H](CCCNC(N)=O)NC(=O)[C@H](CO)NC(=O)[C@H](CCC(=O)O)NC(=O)[C@H](CCC(=O)O)NC(=O)CN)C(=O)N[C@@H](CO)C(=O)N[C@@H](CC(C)C)C(=O)N1CCC[C@H]1C(=O)N[C@@H](CC(C)C)C(=O)N1CCC[C@H]1C(=O)N[C@@H](CC(N)=O)C(=O)N[C@@H](Cc1ccccc1)C(=O)N[C@@H](CO)C(=O)N[C@@H](CO)C(=O)O [GEESXISLPLPNFSS] (H-GEES[Cit]ISLPLPNFSS-OH) | 646 nM
CSCC[C@H](NC(=O)[C@H](CCC(=O)O)NC(=O)[C@H](CCCNC(N)=O)NC(=O)[C@H](CCSC)NC(=O)[C@H](CCC(N)=O)NC(=O)[C@H](CCCNC(=N)N)NC(=O)[C@@H](N)CCC(=O)O)C(=O)N[C@@H](CCC(=O)O)C(=O)N[C@@H](CCC(=O)O)C(=O)N[C@@H](CC(N)=O)C(=O)N[C@@H](Cc1ccccc1)C(=O)N[C@@H](C)C(=O)N[C@H](C(=O)N[C@@H](CCC(=O)O)C(=O)N[C@@H](C)C(=O)O)C(C)C [ERQMXEMEENFAVEA] (H-ERQM[Cit]EMEENFAVEA-OH) | 9530 nM
C[C@H](NC(=O)[C@@H]1CCCN1C(=O)CNC(=O)[C@@H]1CCCN1)C(=O)NCC(=O)N1CCC[C@H]1C(=O)N[C@H](C(=O)NCC(=O)N[C@@H](CCCCN)C(=O)N[C@@H](CCC(N)=O)C(=O)NCC(=O)N[C@@H](CC(=O)O)C(=O)N[C@@H](CCCNC(N)=O)C(=O)NCC(=O)N[C@@H](CCC(=O)O)C(=O)O)[C@@H](C)O [PGPAGPTGKQGDXGE] (H-PGPAGPTGKQGD[Cit]GE-OH; N-terminus and C-terminus assumed) | > 40000 nM
C[C@H](NC(=O)CNC(=O)[C@@H]1CCCN1C(=O)[C@H](CO)NC(=O)CNC(=O)[C@H](CCC(=O)O)NC(=O)[C@@H](N)CCCNC(=N)N)C(=O)N[C@@H](CC(=O)O)C(=O)NCC(=O)N1CCC[C@H]1C(=O)N1CCC[C@H]1C(=O)NCC(=O)N[C@@H](CCCNC(N)=O)C(=O)N[C@@H](CC(=O)O)C(=O)NCC(=O)O [REGSPGADGPPGXDG] (H-REGSPGADGPPG[Cit]DG-OH; N-terminus and C-terminus assumed) | > 40000 nM

Field: IC50. Fill in for each record below.
1. CC[C@H](C)[C@H](NC(=O)[C@H](CC(C)C)NC(=O)[C@H](CC(C)C)NC(=O)[C@@H](NC(=O)[C@H](CCCNC(N)=O)NC(=O)[C@H](CCCCN)NC(=O)[C@H](CO)NC(=O)[C@H](Cc1c[nH]cn1)NC(=O)[C@@H](N)[C@@H](C)O)[C@@H](C)O)C(=O)N[C@@H](CCCCN)C(=O)N[C@H](C(=O)N[C@H](C(=O)N[C@@H](CCC(=O)O)C(=O)N[C@H](C(=O)N[C@@H](CCCNC(=N)N)C(=O)O)[C@@H](C)O)C(C)C)[C@@H](C)O [THSKXTLLIKTVETR] (H-THSK[Cit]TLLIKTVETR-OH)
2. CC[C@H](C)[C@H](N)C(=O)N[C@@H](CO)C(=O)N[C@@H](CC(C)C)C(=O)N1CCC[C@H]1C(=O)N[C@@H](CC(C)C)C(=O)N1CCC[C@H]1C(=O)N[C@@H](CC(N)=O)C(=O)N[C@@H](Cc1ccccc1)C(=O)N[C@@H](CO)C(=O)N[C@@H](CO)C(=O)N[C@@H](CC(C)C)C(=O)N[C@@H](CC(N)=O)C(=O)N[C@@H](CC(C)C)C(=O)N[C@@H](CCCNC(N)=O)C(=O)N[C@@H](CCC(=O)O)C(=O)O
3. CC(C)C[C@H](NC(=O)CNC(=O)[C@@H]1CCCN1C(=O)[C@H](C)NC(=O)CNC(=O)[C@@H]1CCCN1C(=O)[C@H](CC(C)C)NC(=O)CN)C(=O)N[C@@H](CCCNC(N)=O)C(=O)NCC(=O)N[C@@H](CC(C)C)C(=O)N1CCC[C@H]1C(=O)NCC(=O)N[C@@H](CCCCN)C(=O)N[C@@H](CC(=O)O)C(=O)O [GLPGAPGLXGLPGKD] (H-GLPGAPGL[Cit]GLPGKD-OH)

A)
["176 nM", "309 nM", "514 nM"]
